Just for reference, patent US8987314B2 is where these values come from.

Measured IC50 values are reported for all entries that follow.
# System name: Endothelial lipase (EL) (Homo sapiens (Human))
# Sequence (Q9Y5X9 21-500): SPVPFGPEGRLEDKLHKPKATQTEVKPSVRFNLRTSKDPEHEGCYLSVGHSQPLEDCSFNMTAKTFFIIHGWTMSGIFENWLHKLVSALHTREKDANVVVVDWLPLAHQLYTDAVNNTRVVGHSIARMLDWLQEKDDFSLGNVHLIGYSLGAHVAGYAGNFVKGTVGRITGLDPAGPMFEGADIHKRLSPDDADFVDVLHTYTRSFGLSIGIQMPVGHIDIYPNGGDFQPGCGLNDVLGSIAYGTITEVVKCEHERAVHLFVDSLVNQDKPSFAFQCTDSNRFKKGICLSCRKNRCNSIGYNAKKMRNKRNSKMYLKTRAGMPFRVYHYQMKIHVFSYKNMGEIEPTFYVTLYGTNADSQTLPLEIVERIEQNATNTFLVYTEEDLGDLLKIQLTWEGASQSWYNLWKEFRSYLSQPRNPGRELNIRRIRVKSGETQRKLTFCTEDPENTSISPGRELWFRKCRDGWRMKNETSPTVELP
# Assay overview: EL assay: endothelial lipase activity with fluorescent substrate A10070 in DMPG vesicles
# Type: biochemical

These solved cases illustrate the format of a correct answer.
Jot down IC50 (Endothelial lipase (EL) (Homo sapiens (Human))) of Cc1nnc(CNC(=O)C(c2nc3cc(F)c(-c4ccccc4)cc3s2)S(=O)(=O)CCC(F)(F)F)o1 (stereo not drawn) .
< 10 nM

Jot down IC50 (Endothelial lipase (EL) (Homo sapiens (Human))) of NS(=O)(=O)CCNC(=O)C(c1nc2ccc(-c3ccccc3)cc2s1)S(=O)(=O)Cc1ccc(F)cc1 (stereo not drawn) .
< 10 nM

Proceeding to the next molecule to report its IC50.
Jot down IC50 (Endothelial lipase (EL) (Homo sapiens (Human))) of COc1cc(-c2ccc3nc(C(C(=O)NCCS(N)(=O)=O)S(C)(=O)=O)sc3c2)ccn1 (stereo not drawn) .
< 10 nM
